- Target Under Test: Bromodomain-containing protein 4 (Homo sapiens, UniProt O60885)
- Experiment: Inhibition of SGRG-K(Ac)-GG-K(Ac)-GLGK(Ac)-GGA-K(Ac)-RHRKVGG-K(Biotin) binding to N-terminal 6xHis-tagged human BRD4 bromodomain 1 expressed in Escherichia coli BL21 (DE3) preincubated for 10 mins followed by peptide addition and measured after 10 mins by AlphaScreen assay
Quantity Kind: IC50 (µM)

{"Compound": "COCc1nnc(NC(=O)c2cc(OC)c(OC)c(OC)c2)s1", "Quantity Kind": "IC50", "Reported": 11}
{"Compound": "COC(=O)C(CC(C)C)NC(=O)c1cc(OC)c(OC)c(OC)c1 (configuration not stated)", "Quantity Kind": "IC50", "Reported": 8.5}
{"Compound": "COc1cc(C(=O)NCCOc2ccccc2)cc(OC)c1OC", "Quantity Kind": "IC50", "Reported": 6.6}
{"Compound": "COC(=O)C(CCSC)NC(=O)c1cc(OC)c(OC)c(OC)c1 (configuration not stated)", "Quantity Kind": "IC50", "Reported": 2.1}

[A] COc1cc(C(=O)Nc2ccnn2C2CCCC2)cc(OC)c1OC
[B] COc1cc(C(=O)Nc2nccs2)cc(OC)c1OC
[C] COc1cc(C(=O)NCCc2cccs2)cc(OC)c1OC
Prompt: Given 3 compounds, produce a descending ranking by IC50. To answer, arrange all of the labels according to the requested order.
Response: C, B, A
